# procedure-details: Volume of distribution at steady state in Sprague-Dawley rat at 0.1 mg/kg, iv and 1 mg/kg, po
# Format: ADME, organism-based
# assay-context: in vivo, read-out: Vdss
readout-name: Vd (L/kg)
Expressed in L/kg, but write only the number.

Could you please provide reported Vd for `C[C@H](O)c1ccccc1S(=O)(=O)c1ccc(/C=C/c2ccc(F)cc2)cc1` ? Thanks!
19

###

# procedure-details: Drug level in rat cardiac plasma at 5 mg/kg, po administered with imwittor/tween by electrospray mass spectrometry
# Assay type: ADME, organism-based
# Parameters: dose 5 mg/kg, route oral
readout-name: AUC (µM·h)
Expressed in µM·h, but write only the number.

Could you please provide reported AUC for `O=S(=O)(c1ccccc1)c1ccc(/C=C/c2ccc(F)cc2F)cc1` ? Thanks!
0.79
